assay-system: Glyceraldehyde-3-phosphate dehydrogenase (Homo sapiens)
procedure-summary: Binding affinity to human recombinant his tagged GAPDH expressed in Escherichia coli assessed as pseudo first order reaction at 2 mM at pH 7 in presence of beta mercaptoethanol measured for 1 hr by HPLC method
measured-property: K

Completed entries (count: 3):
[[record]]
compound = "BrC1=NOC2(CCCc3ccccc32)C1 (centres undefined)"
value_measured = "5.25 10^-6/s"

[[record]]
compound = "O=C(O)c1ccc2c(c1)CCCC21CC(Br)=NO1 (centres undefined)"
value_measured = "< 1 10^-8/s"

[[record]]
compound = "O=C(O)c1ccc(C2CC(Br)=NO2)cc1 (centres undefined)"
value_measured = "1.11 10^-6/s"


Let's switch to this compound now.
Lookup: Dear colleague, I am looking for the recorded K of the following compound: BrC1=NOC(c2ccccc2)C1 (centres undefined)
Found: 6.62 10^-5/s

---

assay-system: Glyceraldehyde-3-phosphate dehydrogenase (Homo sapiens) (UniProt P04406)
Sequence (P04406 2-335 limits assumed): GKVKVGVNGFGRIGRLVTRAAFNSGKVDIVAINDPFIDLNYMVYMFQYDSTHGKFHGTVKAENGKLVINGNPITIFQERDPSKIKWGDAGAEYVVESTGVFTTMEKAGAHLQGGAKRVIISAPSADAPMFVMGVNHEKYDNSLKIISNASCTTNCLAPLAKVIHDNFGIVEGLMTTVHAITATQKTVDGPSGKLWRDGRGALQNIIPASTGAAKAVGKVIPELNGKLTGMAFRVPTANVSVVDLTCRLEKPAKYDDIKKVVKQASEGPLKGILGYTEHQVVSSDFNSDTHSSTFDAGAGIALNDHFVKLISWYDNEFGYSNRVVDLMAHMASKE
procedure-summary: Binding affinity to human recombinant his tagged GAPDH expressed in Escherichia coli assessed as absolute rate constant at 2 mM at pH 7 in presence of beta mercaptoethanol measured for 1 hr by HPLC method
measured-property: K

[[record]]
compound = "O=C(O)c1ccc(C2CC(Br)=NO2)cc1 (stereo not given)"
value_measured = "1.84 10^-6/M/s"

[[record]]
compound = "C=CC(=O)N1CCC[C@@H](n2nc(-c3ccc(Oc4ccccc4)cc3)c3c(N)ncnc32)C1"
value_measured = "10.4 10^-4/M/s"

[[record]]
compound = "O=C(O)c1ccc2c(c1)CCCC21CC(Br)=NO1 (stereo not given)"
value_measured = "< 1 10^-8/M/s"

[[record]]
compound = "BrC1=NOC(c2ccccc2)C1 (stereo not given)"
value_measured = "1.1 10^-4/M/s"


Let's switch to this compound now.
Lookup: Dear colleague, I am looking for the recorded K of the following compound: BrC1=NOC2(CCCc3ccccc32)C1 (stereo not given)
Found: 8.75 10^-6/M/s

---

procedure-summary: Antiproliferative activity in human PaCa-44 cells measured after 48 hrs by Crystal violet staining based analysis
Type: functional, cell-based
test-conditions: PaCa-44, 48 h
measured-property: pIC50
One number for each entry, as −log10 of the molar value.

Lookup: Dear colleague, I am looking for the recorded pIC50 of the following compound: BrC1=NOC2(CCCc3ccccc32)C1 (stereo unspecified)
Found: 4.79

---

Provide the reported inhibition of each item.
assay-system: Glyceraldehyde-3-phosphate dehydrogenase (Homo sapiens) (UniProt P04406)
procedure-summary: Covalent inhibition of human recombinant his tagged GAPDH expressed in Escherichia coli at 100 uM measured after 3 hrs by spectrophotometric analysis relative to control
One number for each entry, in %.

Quick request: inhibition for each listed item, please.
1. BrC1=NOC2(CCCc3ccccc32)C1 (stereo not drawn)
2. O=C(O)c1ccc(C2CC(Br)=NO2)cc1 (stereo not drawn)
3. O=C(O)c1ccc(C2CC(Br)=NO2)s1 (stereo not drawn)
4. Oc1ccc(C2CC(Br)=NO2)cc1 (stereo not drawn)
5. BrC1=NOC(c2ccccc2)C1 (stereo not drawn)
6. O=S(=O)(O)c1ccc(C2CC(Br)=NO2)cc1 (stereo not drawn)
7. O=C(O)c1cccc(C2CC(Br)=NO2)c1 (stereo not drawn)
8. O=C(O)c1ccc2c(c1)CCCC21CC(Br)=NO1 (stereo not drawn)

Found:
40
40
20
40
40
20
20
40

Cited source for all entries: ChEMBL document CHEMBL5325420
